The measured values listed here are drawn from patent US20230086702A1.

Target: LZK (Homo sapiens)
Construct: 10 nM LZK, catalytic domain, Carna Biosiences in assay buffer; purchased Carna Biosciences ('Carna Biosiences' [sic])
Sequence (O43283 168-409 limits assumed): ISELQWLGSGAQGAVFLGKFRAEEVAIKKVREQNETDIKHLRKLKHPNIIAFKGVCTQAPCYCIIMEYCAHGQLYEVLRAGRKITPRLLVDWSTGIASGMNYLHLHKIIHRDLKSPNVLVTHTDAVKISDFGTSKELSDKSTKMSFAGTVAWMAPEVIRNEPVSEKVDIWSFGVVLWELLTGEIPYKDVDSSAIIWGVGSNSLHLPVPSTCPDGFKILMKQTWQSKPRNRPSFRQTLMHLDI
Test: LZK biochemical assay (TR-FRET, MKK7 phosphorylation)
Details: LZK catalytic domain, MKK7 substrate, 15 μM ATP
# IC50 listing for each entry below
The reply should contain only the number, in nM.

Some solved cases for reference:
{"MOLECULE": "CCC(c1ccc(C(F)(F)F)nc1)n1cc(-c2cc(C(=O)NC(C)(C)CO)c3nc(N)nn3c2)cn1 (single isomer, unassigned) [Example I-165]", "EXPERIMENTAL_RESULT": 190}
{"MOLECULE": "CC[C@H](C)NC(=O)c1cc(-c2cnn(C3CCCc4ncccc43)c2)cc2nc(N)nn12 (mixture of isomers)", "EXPERIMENTAL_RESULT": 3.9}
{"MOLECULE": "Nc1nc2c(C(=O)N[C@H]3CCOC3)cc(-c3cnn(Cc4cccc5cn[nH]c45)c3)cn2n1 (single isomer, unassigned)", "EXPERIMENTAL_RESULT": 150}

INPUT: Report IC50 for CCC(c1ccc(Cl)s1)n1cc(-c2cc(C(=O)N[C@@H](C)CC)c3nc(N)nn3c2)cn1 (mixture of isomers) [Example I-129] please.
OUTPUT: 39

INPUT: Report IC50 for CCC(c1ccc(C(F)F)nc1)n1cc(-c2cc(C(=O)N[C@@H](C)CC)n3nc(N)nc3c2)cn1 (mixture of isomers) [Example I-92] please.
OUTPUT: 3.9

INPUT: Report IC50 for CC[C@H](C)NC(=O)c1cc(-c2cnn(C(c3c(F)cncc3F)C(C)C)c2)cc2nc(N)nn12 (single isomer, unassigned) [Example I-124] please.
OUTPUT: 270

INPUT: Report IC50 for C[C@@H](CO)NC(=O)c1cc(-c2cnn(C(c3ccc(C(F)(F)F)nc3)C3CCOCC3)c2)cn2nc(N)nc12 (single isomer, unassigned) [Example I-156] please.
OUTPUT: 23

INPUT: Report IC50 for CC[C@H](C)NC(=O)c1cc(-c2cnn(C(c3ccccc3)C3CCOCC3)c2)cc2nc(N)nn12 (single isomer, unassigned) [Example I-52] please.
OUTPUT: 5.6

INPUT: Report IC50 for CC[C@H](C)NC(=O)c1cc(-c2cnn(C(c3ccccc3)C(C)C)c2)cc2nc(N)nn12 (single isomer, unassigned) [Example I-25] please.
OUTPUT: 140

INPUT: Report IC50 for CC[C@@H](c1ccc(OC(F)(F)F)nc1)n1cc(-c2cc(C(=O)N[C@@H](C)CO)c3nc(N)nn3c2)cn1 (single isomer, unassigned) please.
OUTPUT: 3.4

INPUT: Report IC50 for CC[C@H](C)NC(=O)c1cc(-c2cnn(C(CC(F)(F)F)c3ccccc3)c2)cn2nc(N)nc12 (single isomer, unassigned) [Example I-38] please.
OUTPUT: 91
